The origin of these recorded values is ChEMBL document CHEMBL1201862.

# Tested on: K562
# Assay Summary: NCI tumour cell line growth inhibition, 48 h
Active and inactive are the calls of the source. Rule as the data show it: active = GI50 up to about 1.1 µM and inactive = higher.
Outcome codes: active, inactive

> print(dat)
                                    molecule  label.class
 1  NC(=O)c1cccc([C@@H]2O[C@H](CO)[C@@H](O)[C@H]2O)c1     inactive
 2   CO/C(=N\N=C\c1cccc(C(F)(F)F)c1)c1ccncc1     inactive
 3  Cc1cc2c(cc1C)[n+]([O-])c(C(=O)/C=C/c1ccc3c(c1)OCO3)c(C)[n+]2[O-]     inactive
 4  N#CCCC(CC#N)N1CCN(CCO)CC1 (stereo unspecified)     inactive
 5  COC(=O)C(NC(=O)C(CC(=O)OC(C)(C)C)NC(=O)OC(C)(C)C)C(O)c1ccccc1 (stereo unspecified)     inactive
 6  CN1CC=C(OP(=O)(NCc2ccccc2)N(CCCl)CCCl)CC1 (stereo unspecified)     inactive
 7  O=Cc1cn(CCCCCn2cc(C=O)c3ccccc32)c2ccccc12     inactive
 8  C=CCN(c1cc(O)c2c(c(C)cn2S(=O)(=O)c2ccccc2)c1[N+](=O)[O-])S(C)(=O)=O     inactive
 9                 COC1=NCc2ccccc2-c2ccccc21     inactive
10  CCOC(=O)CCC(NC(=O)c1ccc(Nc2nc3ccccc3nc2C(=O)OCC)s1)C(=O)OCC (stereo unspecified)     inactive
11  COc1cccc(/C=N/[N-]C(=S)Nc2ccccc2)c1[O-].O.[Zn+2]     inactive
12  CC(C)(C)OC(=O)n1cc(C2CNC(=O)C23CCC(=O)N3Cc2ccccc2)c2ccccc21 (stereo unspecified)     inactive
13  CC(C)(C)c1cc(C(=O)/C=C/c2c(Cl)cccc2Cl)cc(C(C)(C)C)c1O     inactive
14                              CCC(=S)N(C)O       active
15                 CSc1s[s+]c(SC)c1-c1ccccc1     inactive
16  C=C(C)C(CC=C(C)C)CC12CC(CC=C(C)C)C(C)(C)C(CC=C(C)C)(C(=O)C(Cc3ccc(O)c(O)c3)=C1O)C2=O (stereo unspecified)     inactive
17  CC[C@@]1(OP(=O)(O)O)C(=O)OCc2c1cc1n(c2=O)Cc2cc3ccccc3nc2-1       active
18  Cc1cc(Cl)ccc1NC(=O)C1C(=O)N(c2ccc(Cl)cc2C)C(=O)/C1=N\N (stereo unspecified)     inactive
19  COC(=O)c1nn(C(=N)c2ccc(Cl)cc2)c2c1CCCCC2     inactive
20  CCCCCc1cc2cc3c(c(O)c2c(=O)[nH]1)C1(CCC3)C(=O)c2c(O)ccc(O)c2C1=O     inactive
21  COC(=O)[C@H]1C=C[C@@H](C)n2c(=O)c3cc4ccccc4cc3c(=O)n21     inactive

###

# System: HOP-18
# Assay Summary: NCI tumour cell line growth inhibition, 48 h
Activity calls are given as the source filed them. Rule as the data show it: active = GI50 up to about 1.1 µM and inactive = higher.
Readout Type: GI50

> print(dat)
                                   compound               result
1  NC(=O)c1cccc([C@@H]2O[C@H](CO)[C@@H](O)[C@H]2O)c1   26.1 µM (inactive)
2  CC(C)N(CCn1c2c3ccccc3ccc2c2oc(=O)c3ccccc3c21)C(C)C   32.7 µM (inactive)
3                     Cc1cc2c(cn1)C(=O)OCC2  > 100 µM (inactive)
4    O=[N+]([O-])c1ccc(COc2cccc3cccnc23)cc1   31.5 µM (inactive)
5  Cc1ccc(-n2c3nc(=O)n(C)c(=O)c-3nc3ccccc32)c(C)c1   6.62 µM (inactive)
6  COc1cc2c(cc1O)C1C(O)C(O)C=C3CCN(C2)C31 (centres undefined)   2.43 µM (inactive)
7     Clc1ccc(C(n2cc(Br)cn2)n2cc(Br)cn2)cc1   18.1 µM (inactive)
8  Cc1cc2c(cc1C)[n+]([O-])c(C(=O)/C=C/c1ccc3c(c1)OCO3)c(C)[n+]2[O-]  > 100 µM (inactive)
9  NC(=S)N/N=C1\C(=O)N(CCc2ccccc2)C(=O)C1C(=O)NCCc1ccccc1 (centres undefined)  > 100 µM (inactive)
